# METHOD SUMMARY: qHTS drug screen for cell cycle checkpoint inhibitors in PARPi-resistant BRCA-mutant ovarian cancer cell lines. (AID 1963452)
# MEASUREMENT CONDITIONS: PEO1/OlaR viability, CellTiter-Glo luminescence, 96 h; measured here: PEO4 Z-AUC; stronger effect = lower value
OBSERVED PROPERTY: Z-AUC

CC(C)[C@H]1C(=O)N[C@H](CO)Cc2c[nH]c3cccc(c23)N1C: -0.578
C#CC1(O)CCC2C3CCC4=CC(=O)CCC4(C)C3CCC21C (centres undefined): 0.608
CN1CCN(c2ccc([N+](=O)[O-])c3no[n+]([O-])c23)CC1: 1.04
O=C(NCC1CCOCC1)c1cnc(Nc2ccc(Cl)cc2Cl)nc1C(F)(F)F: 1.04
CCOC(=O)Nc1ccc(NCc2ccc(F)cc2)cc1N: 0.397
O=c1[nH]c2ccc(Cl)cc2c(N[C@@H]2CN3CCC2CC3)c1-c1nc2ccccc2[nH]1: -1.24
CCN1C[C@]2(OC(=O)c3ccccc3NC(C)=O)CC[C@H](OC)[C@@]34[C@H]5CC6[C@@H](OC)C[C@](O)(C(C[C@@H]23)[C@@H]14)[C@@]5(O)[C@@H]6OC: 1.24
O=C(N[C@@H](COc1ccc2[nH]c(=O)[nH]c2c1)c1ccccc1)c1cccn(Cc2ccc(F)c(F)c2)c1=O: 0.64
O=c1cccc2n1CC1CNC[C@H]2C1: 1.69

The measurements presented in this section are drawn from PubChem BioAssay (NCATS).
